measurement-name: melting point

Answered cases to consult:
{"molecule": "CCCc1c(OCC(O)COc2ccc3c(c2CCC)OC(C(=O)O)CC3=O)ccc(C(C)=O)c1O (centres undefined)", "melting point": "68 to 72 °C"}
{"molecule": "CN1Cc2c(C#Cc3ccccc3)ncn2-c2cccc(Br)c2C1=O", "melting point": "207 to 209 °C"}
{"molecule": "O=C(O)Cc1ccc(OCCNC(=O)C2Cc3ccccc3N2S(=O)(=O)c2ccc(-c3cc(C(F)(F)F)ccc3F)cc2)cc1 (centres undefined)", "melting point": "81 to 84 °C"}
{"molecule": "COc1ccc(C(=O)C23CC4CC(C2)CC(C(=O)c2ccc(OC)cc2)(C4)C3)cc1", "melting point": "148 to 150 °C"}
{"molecule": "CNc1nc(-c2cccc(N(C)C(=O)c3ccccc3)c2)c2cc(OC)c(OC)cc2n1", "melting point": "198 to 200 °C"}

Task: Entry `CCCOC(=O)c1cc(NC(=O)c2ccccc2O)cc(Br)c1O` : reported melting point = ?
Output: 198 to 200 °C

Task: Look up melting point for this molecule: `Cc1noc(NS(=O)(=O)c2cccc(-c3ccccc3)c2)c1Cl`
Output: 84 to 86 °C

Task: Give its melting point value. Item: `CS(=O)(=O)N[C@@H](CCCCNC(=O)OCc1ccccc1)C(=O)O`
Output: 83.5 to 84 °C

Task: Can you share its melting point? I mean this molecule: NC(=O)C1CCc2c(sc3cc(F)ccc23)C1 (centres undefined)
Output: 184 to 185 °C

###

Here, each record is paired with measured melting point data.

Task: // melting point lookup, key: `COc1ccc(Nc2nc(Cl)nc(Cl)n2)cc1`
Output: 165 to 168 °C

Task: melting point for `COc1ccnc(CSc2nc3cscc3n2CO)c1` ?
Output: 125 to 127 °C

Task: Looking for the measured melting point of `COc1ccc2nc(C)cc(Oc3cc(-c4ccc(C(F)(F)F)cc4)ncn3)c2c1` , can you help?
Output: 165 to 166 °C

Task: # get_value(readout='melting point', item= COc1ccc(C2CCc3c(OC(C)=O)cc(OC(C)=O)cc3O2)cc1OC(C)=O (configuration not stated) )
Output: 106 to 107 °C

Task: // returns reported melting point for input `CCNC(=O)c1sc(C)cc1[Si](C)(C)C`
Output: 112 to 115 °C

###

Listing of recorded melting point by entry.

{"compound": "CN1C(=O)N(c2ccc(C#N)c(C(F)(F)F)c2)C(=O)C1(CF)CF", "measurement-name": "melting point", "test-value": "137 to 138 °C"}
{"compound": "CC(=O)NCCC1CCc2ccn3nc(C)c(C)c3c21 (stereo not given)", "measurement-name": "melting point", "test-value": "134 to 135 °C"}
{"compound": "CCOC(=O)c1nc2ccc(CO)cc2n1OC", "measurement-name": "melting point", "test-value": "110 °C"}
{"compound": "Cn1cnc(S(=O)(=O)NCCCCCCNS(=O)(=O)c2cn(C)cn2)c1", "measurement-name": "melting point", "test-value": "153 to 154 °C"}
{"compound": "O=C(SCCC(=O)N1c2ccccc2CC1C(=O)O)c1ccccc1 (stereo not given)", "measurement-name": "melting point", "test-value": "173 to 175 °C"}

Task: # melting point lookup, item `CNc1ccc2cc(Br)ccc2c1[N+](=O)[O-]`
Output: 169 to 170 °C
